- System tested: TNIK (Homo sapiens (Human))
- Method summary: In vitro TNIK kinase assay using ADP-Glo Kinase Assay system
- Assay type: biochemical
- Conditions: compound at 1 μM; 100 μM ATP, MBP substrate
Result type: inhibition at 1 µM (%)
Numbers only, in %.

Field: example entries. Status: answers known.
- Compound: "COc1ccc(-c2cc(Nc3ccc4[nH]ncc4c3)n[nH]2)cc1 [Compound 2]"
  Recorded result: 99
- Compound: "O=C1COc2cc(Nc3cc(-c4ccc(-n5cccn5)cc4)[nH]n3)ccc2N1 [Compound 13]"
  Recorded result: 90

Return reported inhibition at 1 µM values for all items listed beneath this line.
1. Oc1ccc(-c2cc(Nc3ccc4[nH]ncc4c3)n[nH]2)cc1 [Compound 11]
2. O=C1CCc2cc(Nc3cc(-c4ccc(O)cc4)[nH]n3)ccc2N1 [Compound 6]

94
96

Return reported inhibition at 1 µM values for all items listed beneath this line.
1. COc1ccc(-c2cc(Nc3ccc4[nH]c(=O)[nH]c4c3)n[nH]2)cc1 [Compound 3]
2. Oc1ccc(-c2cc(Nc3ccc4[nH]ncc4c3)n[nH]2)cc1F [Compound 12]
3. O=C1COc2cc(Nc3cc(-c4ccc(O)cc4)[nH]n3)ccc2N1 [Compound 14]

79
93
97

====

- System tested: TNIK (Homo sapiens (Human))
- Method summary: In vitro TNIK kinase assay using ADP-Glo Kinase Assay system
- Format: biochemical
- Conditions: compound at 1 μM; 100 μM ATP, MBP substrate
Result type: inhibition at 1 µM (%)
One number for each entry, in %.

Return reported inhibition at 1 µM values for all items listed beneath this line.
1. O=C1CCc2cc(Nc3cc(-c4ccc(-n5ccnc5)cc4)[nH]n3)ccc2N1
2. c1cnn(-c2ccc(-c3cc(Nc4ccc5[nH]ncc5c4)n[nH]3)cc2)c1
3. Cc1nc2cc(Nc3cc(-c4ccc(-n5cccn5)cc4)[nH]n3)ccc2[nH]1
4. O=C1Cc2cc(Nc3cc(-c4ccc(O)c(F)c4)[nH]n3)ccc2N1

[98, 99, 99, 88]

====

- System tested: TNIK (Homo sapiens (Human), UniProt Q9UKE5)
- Sequence (Q9UKE5 whole entry): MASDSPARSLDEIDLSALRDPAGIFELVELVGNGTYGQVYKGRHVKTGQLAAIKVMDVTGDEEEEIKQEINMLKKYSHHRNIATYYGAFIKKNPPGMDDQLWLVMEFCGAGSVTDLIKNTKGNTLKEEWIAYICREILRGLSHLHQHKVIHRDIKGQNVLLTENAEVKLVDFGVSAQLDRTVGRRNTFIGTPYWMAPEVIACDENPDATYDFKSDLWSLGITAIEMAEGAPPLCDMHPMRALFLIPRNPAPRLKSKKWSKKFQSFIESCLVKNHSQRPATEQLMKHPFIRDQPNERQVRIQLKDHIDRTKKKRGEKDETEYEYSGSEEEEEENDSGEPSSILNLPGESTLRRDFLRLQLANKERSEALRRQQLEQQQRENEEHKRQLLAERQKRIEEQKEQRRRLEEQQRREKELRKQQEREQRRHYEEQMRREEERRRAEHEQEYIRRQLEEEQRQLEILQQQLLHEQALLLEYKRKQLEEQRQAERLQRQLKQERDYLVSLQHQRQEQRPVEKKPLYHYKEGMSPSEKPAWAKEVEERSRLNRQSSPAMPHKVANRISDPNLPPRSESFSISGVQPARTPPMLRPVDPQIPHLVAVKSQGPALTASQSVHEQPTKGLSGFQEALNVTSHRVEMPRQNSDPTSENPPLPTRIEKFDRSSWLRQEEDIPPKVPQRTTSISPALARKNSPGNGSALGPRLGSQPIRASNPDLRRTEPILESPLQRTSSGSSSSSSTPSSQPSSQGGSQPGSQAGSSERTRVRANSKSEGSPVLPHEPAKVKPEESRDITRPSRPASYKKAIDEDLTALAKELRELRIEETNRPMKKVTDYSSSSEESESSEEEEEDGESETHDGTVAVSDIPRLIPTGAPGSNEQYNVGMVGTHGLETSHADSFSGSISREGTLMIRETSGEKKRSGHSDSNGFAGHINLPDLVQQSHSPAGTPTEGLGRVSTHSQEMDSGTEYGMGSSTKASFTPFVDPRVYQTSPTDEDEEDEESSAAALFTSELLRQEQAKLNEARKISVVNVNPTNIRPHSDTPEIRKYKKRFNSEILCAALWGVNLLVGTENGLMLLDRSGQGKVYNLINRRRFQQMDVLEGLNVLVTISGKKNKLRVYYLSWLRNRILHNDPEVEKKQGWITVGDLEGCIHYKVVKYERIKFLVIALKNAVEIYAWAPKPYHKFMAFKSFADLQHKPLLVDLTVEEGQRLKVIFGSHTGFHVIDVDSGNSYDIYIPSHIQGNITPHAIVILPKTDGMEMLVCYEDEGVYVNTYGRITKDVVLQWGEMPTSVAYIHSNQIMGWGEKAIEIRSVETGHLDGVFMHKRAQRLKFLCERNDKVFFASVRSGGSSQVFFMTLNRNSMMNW
Result type: log10 of IC50 (log10 of the value in nM)
The common logarithm of IC50 in nM is what is listed.

Field: example entries. Status: answers known.
- Smiles: "O=C1Cc2cc(Nc3cc(-c4ccc(O)c(F)c4)[nH]n3)ccc2N1"
  log10 of IC50: 0.00
- Smiles: "O=C1CCc2cc(Nc3cc(-c4ccc(-n5cccn5)cc4)[nH]n3)ccc2N1"
  log10 of IC50: 0.00
- Smiles: "O=C1CCc2cc(Nc3cc(-c4ccc(O)cc4)[nH]n3)ccc2N1"
  log10 of IC50: 1.79
- Smiles: "O=C1COc2cc(Nc3cc(-c4ccc(-n5cccn5)cc4)[nH]n3)ccc2N1"
  log10 of IC50: 0.85
- Smiles: "COc1ccc(-c2cc(Nc3ccc4[nH]ncc4c3)n[nH]2)cc1"
  log10 of IC50: 1.97

Return reported log10 of IC50 values for all items listed beneath this line.
1. Cc1nc2cc(Nc3cc(-c4ccc(-n5cccn5)cc4)[nH]n3)ccc2[nH]1
2. O=C1CCc2cc(Nc3cc(-c4ccc(-n5ccnc5)cc4)[nH]n3)ccc2N1

1: 1.98; 2: 0.00

====

- System: SW620 cells
- Method summary: Cell viability assay (CCK-8) using SW620 cell
- Format: cell-based
- Conditions: Homo sapiens, SW-620, 48 h exposure
- Method: 3. Efficacy of Inhibiting Cancer Cells Using Colon Cancer Cell Lines […] Cell viability was measured using the Cell Counting Kit-8 (Dojindo Molecular Technologies). […] Optical density was measured at 450 nm using a microplate reader (Bio-Rad Laboratories, Hercules, Calif.). The IC50 values were calculated using GraphPad Prism software (GraphPad Software Inc., La Jolla, Calif., USA) to determine kit performance. […]
Would you mind telling me the reported IC50 of each entry?
Give bare numbers, in µM.

- Compound: "COc1ccc(-c2cc(Nc3ccc4[nH]ncc4c3)n[nH]2)cc1 [Compound 2]"
  System tested: "SW620 cells"
  Readout units: "µM"
  IC50: 1.2

Return reported IC50 values for all items listed beneath this line.
1. Oc1ccc(-c2cc(Nc3ccc4[nH]ncc4c3)n[nH]2)cc1F [Compound 12]
2. Cc1nc2cc(Nc3cc(-c4ccc(-n5cccn5)cc4)[nH]n3)ccc2[nH]1 [Compound 18]

1. 13
2. 3.4

====

- System tested: UniProtKB Q9UKE5
- Method summary: In vitro TNIK kinase assay using qPCR (competition binding with liganded affinity beads)
- Conditions: compound at 1 μM; kinase in eluate measured by qPCR
Result type: activity at 1 µM (%)
Answers are plain numbers, in %.

- Smiles: "COc1ccc(-c2cc(Nc3ccc4cn[nH]c4c3)n[nH]2)cc1"
  Readout units: "%"
  activity at 1 µM: 8
- Smiles: "COc1ccc(-c2cc(Nc3ccc4[nH]ccc4c3)n[nH]2)cc1"
  Readout units: "%"
  activity at 1 µM: 16
- Smiles: "COc1ccc(-c2cc(Nc3ccc4[nH]c(=O)[nH]c4c3)n[nH]2)cc1"
  Readout units: "%"
  activity at 1 µM: 7

# return recorded activity at 1 µM for input `COc1ccc(-c2cc(Nc3ccc4[nH]ncc4c3)n[nH]2)cc1`
21
